testedOn: protein-protein interaction between Kras and SOS1 (biotin-tagged human Kras loaded with GDP, His-tagged human SOS1) (Homo sapiens (Human), UniProt P01116, G12D)
procedureDetails: Protein-protein interaction inhibition between Kras and SOS1 (KrasG12D-SOS PPI) using AlphaScreen;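 also: kras produced in E. coli, Ni-coupled donor beads and streptavidin acceptor beads, excitation 680 nm with emission detected at 520–620 nm via singlet oxygen transfer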
Type: biochemical
measurementSetup: AlphaScreen; biotin-tagged human Kras loaded with GDP, His-tagged human SOS1; read-out: KRAS G12D-SOS PPI IC50
Numbered stars: 1 amine (or outer) side, 2 acyl side, 3 side chain; on linkers, the order of the positions; unused ones are H or OH. Bridge positions count the residues as written; N and C are the ends. Square brackets hold non-standard residues; d marks the D form. Peptide text beside a SMILES is read from it. * marks the point of attachment. hPhe(3-Cl-4-CF3) = N[C@@H](CCc1ccc(C(F)(F)F)c(Cl)c1)C(=O)O; hPhe(3-F,4-CF3) = N[C@@H](CCc1ccc(C(F)(F)F)c(F)c1)C(=O)O; NMePhe(4-CF3) = CN[C@@H](Cc1ccc(C(F)(F)F)cc1)C(=O)O; NEtPhe(4-Me) = CCN[C@@H](Cc1ccc(C)cc1)C(=O)O; NMePhe(4-Cl) = CN[C@@H](Cc1ccc(Cl)cc1)C(=O)O; NMedβ3hAla = C[C@H](CC(=O)[*:2])N(C)[*:1]; NMeGly(cPent) = CN[C@H](C(=O)O)C1CCCC1; NMeCha = CN[C@@H](CC1CCCCC1)C(=O)O; NMehLeu = CN[C@@H](CCC(C)C)C(=O)O; NMeD = CN[C@@H](CC(=O)O)C(=O)O; NMeL = CN[C@@H](CC(C)C)C(=O)O; NMeV = CN[C@H](C(=O)O)C(C)C; d(β3hA) = C[C@@H](N)CC(=O)O; NMeA = CN[C@@H](C)C(=O)O; NMeAib = CNC(C)(C)C(=O)O; Piperidide = C1CCN(*)CC1; Pra = C#CC[C@H](N)C(=O)O; Ac5c = NC1(C(=O)O)CCCC1; Aze = O=C(O)[C@@H]1CCN1; Aib = CC(C)(N)C(=O)O; Sar = CNCC(=O)O
quantity: pIC50
Convention used: pIC50 is expressed as -log10 of the molar concentration.

Worked cases, pIC50 given:
• CC[C@H](C)[C@@H]1NC(=O)[C@H](CCC(C)C)N(C)C(=O)C[C@@H](C(=O)N2CCCCC2)N(C)C(=O)[C@H](C(C)C)N(C)C(=O)C2(CCCC2)NC(=O)[C@@H]2CCCN2C(=O)[C@H](CCc2ccc(C(F)(F)F)c(Cl)c2)NC(=O)CN(C)C(=O)[C@H](CC2CCCCC2)N(C)C(=O)[C@@H]2CCN2C(=O)[C@H](C)N(C)C1=O [Compound 1833] ([NMehLeu]I[NMeA][Aze][NMeCha][Sar][hPhe(3-Cl-4-CF3)]P[Ac5c][NMeV][NMeD]-Piperidide; lactam N-11) = 8.12
• CC[C@H](C)[C@@H]1NC(=O)[C@H](CC(C)C)N(C)C(=O)C[C@@H](C)N(C)C(=O)[C@H](CC(C)C)NC(=O)C(C)(C)N(C)C(=O)[C@H]([C@@H](C)CC)NC(=O)[C@H](CCc2ccc(C(F)(F)F)c(F)c2)NC(=O)CN(C)C(=O)[C@H](Cc2ccc(Cl)cc2)N(C)C(=O)CN(C)C(=O)CN(C)C1=O [Compound 332] (cyclo(I[NMeAib]L[NMedβ3hAla][NMeL]I[Sar][Sar][NMePhe(4-Cl)][Sar][hPhe(3-F,4-CF3)])) = 6.68
• CC[C@H](C)[C@@H]1NC(=O)[C@H](CC(C)C)N(C)C(=O)C[C@@H](C(=O)N(C)C)N(C)C(=O)[C@H](C2CCCC2)N(C)C(=O)C2(CCCC2)NC(=O)[C@@H]2CCCN2C(=O)[C@H](CCc2ccc(C(F)(F)F)c(Cl)c2)NC(=O)CN(C)C(=O)[C@H](Cc2ccc(C)cc2)N(CC)C(=O)[C@@H]2CCN2C(=O)[C@H](C)N(C)C1=O [Compound 279] ([NMeL]I[NMeA][Aze][NEtPhe(4-Me)][Sar][hPhe(3-Cl-4-CF3)]P[Ac5c][NMeGly(cPent)][NMeD]-NMe2; lactam N-11) = 9.00
• CC[C@H](C)[C@@H]1NC(=O)[C@H](CC(C)C)N(C)C(=O)C[C@@H](C(=O)N2CCCCC2)N(C)C(=O)[C@H](C2CCCC2)N(C)C(=O)C2(CCCC2)NC(=O)[C@@H]2CCCN2C(=O)[C@H](CCc2ccc(C(F)(F)F)c(Cl)c2)NC(=O)CN(C)C(=O)[C@H](Cc2ccc(C(F)(F)F)cc2)N(C)C(=O)[C@@H]2CCN2C(=O)[C@H](C)N(C)C1=O [Compound 370] ([NMeL]I[NMeA][Aze][NMePhe(4-CF3)][Sar][hPhe(3-Cl-4-CF3)]P[Ac5c][NMeGly(cPent)][NMeD]-Piperidide; lactam N-11) = 9.46

Now, please, on to the next molecule.
[ask] Name the recorded pIC50 for C#CC[C@@H]1NC(=O)[C@H](CC(C)C)N(C)C(=O)C[C@@H](C)NC(=O)[C@H](CC(C)C)N(C)C(=O)C(C)(C)NC(=O)[C@H](CC(C)C)N(C)C(=O)[C@H](CCc2ccc(C(F)(F)F)c(F)c2)NC(=O)CN(C)C(=O)[C@H](CC2CCCCC2)N(C)C(=O)CN(C)C(=O)CN(C)C1=O [Compound 1474] (cyclo([Aib][NMeL][d(β3hA)][NMeL][Pra][Sar][Sar][NMeCha][Sar][hPhe(3-F,4-CF3)][NMeL])) .
[reply] 6.62
